# System: HL-60(TB) leukemia
# test.details: NCI-60 one-dose screen, 48 h
# condition: 10 µM unless noted
Compounds without any hit were thinned out: in the full panel of roughly 83,000, 20% have a hit. Active and inactive are the calls of the source. How the source made its calls: active means growth percent below 10; inactive means the rest.
Classes to choose from: active, inactive

Query block: What was the test verdict on CCC1S/C(=N\N=C(\C)c2cc3cc(Cl)ccc3o2)N(c2ccccc2)C1=O (stereo unspecified) ?
Result block: inactive

Query block: What was the test verdict on `CCOS(=O)(=O)c1c(C(C)C)cc(C(C)C)cc1C(C)C` ?
Result block: inactive

Query block: What was the test verdict on `CCOc1cc(/C=N\Nc2nnc(C)n2N)c(C)cc1N(CCCl)CCCl` ?
Result block: active

Query block: What was the test verdict on `N#Cc1c(-c2ccccc2)nc2c(c(-c3ccc(Cl)cc3)nn2-c2ccccc2)c1-c1ccc([N+](=O)[O-])cc1` ?
Result block: inactive

Query block: What was the test verdict on `Cc1ccc(-c2noc(C)n2)cc1` ?
Result block: inactive

Query block: What was the test verdict on COc1cc2c(cc1OC)C1CCN3C(=O)CCC3N1CC2 (stereo unspecified) ?
Result block: inactive

Query block: What was the test verdict on Cc1ccccc1N1C(c2ccccc2)=NNC12C=CC(=O)C=C2Cl (stereo unspecified) ?
Result block: inactive

Query block: What was the test verdict on CCC(/C=C(C)/C=C/C(=O)c1c(O)c(-c2ccc(O)cc2)c[nH]c1=O)CO (stereo unspecified) ?
Result block: active

Query block: What was the test verdict on Nc1ncnc2c1N=C(c1ccc(Cl)cc1)CC(c1ccc3c(c1)OCO3)N2 (stereo unspecified) ?
Result block: inactive

Query block: What was the test verdict on `O=S(=O)(Nc1ccc(-n2cnc3cc(-c4ccc(O)cc4)ccc32)cc1)c1ccccc1` ?
Result block: inactive

Query block: What was the test verdict on CCN1C(=O)N(CC)C2C1NN=c1s/c(=C\c3ccccc3F)c(=O)n12 (stereo unspecified) ?
Result block: active

Query block: What was the test verdict on `CCCCN(CCCC)C(=N)c1ccnc2ccccc12` ?
Result block: inactive

Query block: What was the test verdict on `CN1CCN(c2ccc3nc(-c4ccc5nc(-c6ccc(O)cc6)[nH]c5c4)[nH]c3c2)CC1` ?
Result block: inactive

Query block: What was the test verdict on `COc1ccc(-c2c[nH]c(C(=O)O)c2-c2cc(OC)c(OC)c(OC)c2)cc1` ?
Result block: active

Query block: What was the test verdict on `CCOc1cc(/C=C/C(=O)CC(=O)/C=C/c2ccc(OC(=O)CNCCN(CC)CC)c(OCC)c2)ccc1OC(=O)CNCCN(CC)CC` ?
Result block: active

Query block: What was the test verdict on `O=C(Nc1cccc(Cl)c1)c1ccc(Cl)cc1Cl` ?
Result block: inactive
